// data source = patent US9840500B2

Please provide measured GI50 for the entries that follow.
System: OCI-AML-2
Assay: Cell proliferation assay, OCI-AML-2 (AML)
Type: cell-based
Conditions: Homo sapiens, OCI-AML2, Table 5 comparison
Experimental: Cell proliferation was analyzed after 48 hours of in vitro treatment using the CellTiter 96 Aqueous One Solution Cell Proliferation Assay (Promega, Madison, Wis.). […] After 48 hours of treatment, plates with suspension cells were centrifuged at 800 g for 10 minutes and medium was removed. […] After 1-3 hours of incubation at 37° C., absorbance was measured at 490 nm in a 96-well plate reader. The background absorbance was measured in wells with only cell line medium and solution reagent. […]

Exercise: // returns reported GI50 for input COc1cc2c(NCC3CCN(C)CC3)cc(-c3ccc(C)o3)nc2cc1OCCCN1CCCC1 [Compound 3-07]
Key: 100 to 1000 nM

Exercise: Next record, please: COc1cc2c(NC3CCN(C)CC3)cc(-c3ccc(C)o3)nc2cc1OCCCN1CCCC1.O=C(O)C(F)(F)F [Compound 3-04]
Key: 100 to 1000 nM

Exercise: Next record, please: Nc1ncn([C@@H]2O[C@H](CO)[C@@H](O)[C@H]2O)c(=O)n1 [5-azacytidine, reference compound]
Key: ≥ 10000 nM

Exercise: Next record, please: COc1cc2nc(N3CCCN(C)CC3)nc(NC3CCN(Cc4ccccc4)CC3)c2cc1OC [BIX01294]
Key: 1000 to 10000 nM

Exercise: Next record, please: COc1cc2c(NC3CCN(C(C)C)CC3)nc(C3CCCCC3)nc2cc1OCCCN1CCCC1 [UNC0638, reference compound]
Key: 1000 to 10000 nM
